- system-name: human recombinant mGluR5 (Homo sapiens, UniProt P41594)
- Sequence (P41594 21-1212): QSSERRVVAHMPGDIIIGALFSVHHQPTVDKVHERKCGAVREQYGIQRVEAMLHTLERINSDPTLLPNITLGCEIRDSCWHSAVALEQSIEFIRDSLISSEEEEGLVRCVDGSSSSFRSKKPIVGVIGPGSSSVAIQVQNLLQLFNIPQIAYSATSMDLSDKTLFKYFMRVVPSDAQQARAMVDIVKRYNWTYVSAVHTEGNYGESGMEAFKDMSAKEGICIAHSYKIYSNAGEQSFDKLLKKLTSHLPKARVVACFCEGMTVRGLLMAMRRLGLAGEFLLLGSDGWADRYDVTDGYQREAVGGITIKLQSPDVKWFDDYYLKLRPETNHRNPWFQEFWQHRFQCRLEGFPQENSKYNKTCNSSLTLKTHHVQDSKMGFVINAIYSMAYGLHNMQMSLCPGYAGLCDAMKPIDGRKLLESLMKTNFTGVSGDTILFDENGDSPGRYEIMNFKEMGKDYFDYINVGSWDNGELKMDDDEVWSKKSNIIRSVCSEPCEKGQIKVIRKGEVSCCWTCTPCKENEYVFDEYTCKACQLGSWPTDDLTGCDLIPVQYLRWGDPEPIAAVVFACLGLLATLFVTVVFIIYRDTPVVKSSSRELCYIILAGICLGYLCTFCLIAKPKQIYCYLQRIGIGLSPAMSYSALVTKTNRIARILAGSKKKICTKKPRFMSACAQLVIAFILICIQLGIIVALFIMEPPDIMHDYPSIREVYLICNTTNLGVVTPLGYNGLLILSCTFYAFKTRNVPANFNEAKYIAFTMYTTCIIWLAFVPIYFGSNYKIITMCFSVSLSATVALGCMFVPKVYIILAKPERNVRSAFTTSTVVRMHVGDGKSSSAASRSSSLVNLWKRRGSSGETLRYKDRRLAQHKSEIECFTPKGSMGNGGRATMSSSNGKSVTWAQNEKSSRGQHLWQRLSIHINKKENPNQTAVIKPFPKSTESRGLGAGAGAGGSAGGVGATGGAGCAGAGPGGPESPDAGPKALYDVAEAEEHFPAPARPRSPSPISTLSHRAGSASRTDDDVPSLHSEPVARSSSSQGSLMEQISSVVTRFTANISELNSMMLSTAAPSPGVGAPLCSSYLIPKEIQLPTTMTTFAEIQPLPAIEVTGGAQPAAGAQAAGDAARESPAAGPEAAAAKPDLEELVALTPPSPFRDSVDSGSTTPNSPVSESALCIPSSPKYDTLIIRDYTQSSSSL
- assay-overview: positive modulation of mGluR5, calcium based FLIPR assay
- details: HEK 293 cell line expressing human recombinant mGluR5; EC50 of the modulation from peak Ca fluorescence signal after glutamate at approx. 5% basal stimulation
Assign pEC50 to each entry below.
Answers are plain numbers, as −log10 of the molar value.

Here's what some known entries look like.
compound: CCc1cc(-c2ccc(F)c(C)c2)nn1CC(=O)N1CCN(c2noc(C)n2)CC1 [Example 7.02.196]
system-name: human recombinant mGluR5 (Homo sapiens, UniProt P41594)
observable: pEC50
recorded-number: 7.37

compound: CCc1cccc(-c2cc(CC)n(CC(=O)N3CCN(c4cccc(OC)c4)C(=O)C3)n2)c1 [Example 7.02.065]
system-name: human recombinant mGluR5 (Homo sapiens, UniProt P41594)
observable: pEC50
recorded-number: 6.71

compound: COc1cccc(-c2cc(C3CCCCC3)n(CC(=O)N3CCN(c4cccc(OC)c4)C(=O)C3)n2)c1 [Example 7.02.053]
system-name: human recombinant mGluR5 (Homo sapiens, UniProt P41594)
observable: pEC50
recorded-number: 6.26

compound: COc1cc(C2CCN(C(=O)Cn3nc(-c4ccc(C)c(C)c4)cc3-c3ccccc3)CC2)ncn1 [Example 7.02.091]
system-name: human recombinant mGluR5 (Homo sapiens, UniProt P41594)
observable: pEC50
recorded-number: 6.94

compound: CCc1cc(-c2cccc(C)c2)nn1CC(=O)N1CCc2nc(C)sc2CC1 [Example 7.02.084]
system-name: human recombinant mGluR5 (Homo sapiens, UniProt P41594)
observable: pEC50
recorded-number: 7.14

compound: COc1cc(-c2cc(-c3ccccc3)n(CC(=O)N3CCC(c4ncc(C)o4)CC3)n2)ccc1F [Example 7.02.152]
system-name: human recombinant mGluR5 (Homo sapiens, UniProt P41594)
observable: pEC50
recorded-number: 7.17

compound: Cc1nc2c(s1)CCN(C(=O)Cn1nc(-c3ccc(C)c(C)n3)cc1-c1ccccc1)CC2 [Example 7.02.122]
system-name: human recombinant mGluR5 (Homo sapiens, UniProt P41594)
observable: pEC50
recorded-number: 7.42

compound: Cc1cc(-c2cc(-c3ccccc3)n(CC(=O)N3CCc4ccc(N)cc4CC3)n2)ccc1F [Example 7.01.095]
system-name: human recombinant mGluR5 (Homo sapiens, UniProt P41594)
observable: pEC50
recorded-number: 7.28

compound: CCc1cc(-c2ccc(F)c(C)c2)nn1CC(=O)N1CCc2nc(C)sc2CC1 [Example 7.02.024]
system-name: human recombinant mGluR5 (Homo sapiens, UniProt P41594)
observable: pEC50
recorded-number: 7.54

compound: Cc1nc(N2CCN(C(=O)Cn3nc(-c4cc(C)c(F)cn4)cc3-c3ccccc3)CC2)no1 [Example 7.02.178]
system-name: human recombinant mGluR5 (Homo sapiens, UniProt P41594)
observable: pEC50
recorded-number: 7.16

Please give pEC50 for each item listed below.
1. CCCc1cc(-c2ccc(F)c(C)c2)nn1CC(=O)N1CCC(c2ncc(OC)cn2)CC1 [Example 7.02.069]
2. Cc1csc(N2CCN(C(=O)Cn3nc(-c4ccc(F)c(C)c4)cc3-c3ccccc3)CC2)n1 [Example 7.02.159]
3. CCCc1cc(-c2ccc(F)c(C)c2)nn1CC(=O)N1CC=C(c2ncc(OC)cn2)CC1 [Example 7.02.071]

Solution:
6.73
7.36
7.15

Please give pEC50 for each item listed below.
1. CCc1cc(-c2ccc(C)c(C)c2)nn1CC(=O)N1Cc2nc(C)sc2C1 [Example 7.02.075]
2. Cc1nnc(N2CCN(C(=O)Cn3nc(-c4cc(C)c(F)cn4)cc3-c3ccccc3)CC2)o1 [Example 7.02.180]

Solution:
6.50
5.97

----------
Assign pEC50 to each entry below.
- system-name: human recombinant mGluR5 (Homo sapiens, UniProt P41594)
- assay-overview: positive modulation of mGluR5, calcium based FLIPR assay
- details: HEK 293 cell line expressing human recombinant mGluR5; EC50 of the modulation from peak Ca fluorescence signal after glutamate at approx. 5% basal stimulation
One number for each entry, as −log10 of the molar value.

Here's what some known entries look like.
compound: Cc1cnc(C2CCN(C(=O)Cn3nc(-c4cccc(Cl)c4)cc3-c3ccccc3)CC2)o1
recorded-number: 7.17

compound: Cc1nc2c(s1)CCN(C(=O)Cn1nc(-c3ccc(C)c(C)c3)cc1-c1ccccc1)CC2
recorded-number: 7.96

compound: Cc1nc2c(s1)CCN(C(=O)Cn1nc(-c3cccc(C#N)c3)cc1-c1ccccc1)CC2
recorded-number: 7.82

compound: Cc1nc2c(s1)CCN(C(=O)Cn1nc(-c3ccc(F)c(C)c3)cc1C(C)C)CC2
recorded-number: 7.38

compound: COc1ccc(-c2cc(-c3ccccc3)n(CC(=O)N3CCc4nc(C)sc4CC3)n2)cc1C [Example 7.02.241]
recorded-number: 7.12

Please give pEC50 for each item listed below.
1. Cc1nc2c(s1)CN(C(=O)Cn1nc(-c3ccc(C)c(C)n3)cc1-c1ccccc1)C2
2. Cc1cnc(C2CCN(C(=O)Cn3nc(-c4cccc(C#N)c4)cc3-c3ccccc3)CC2)o1
3. Cc1nc2c(s1)CN(C(=O)Cn1nc(-c3ccc(F)c(C)n3)cc1-c1ccccc1)C2
4. O=C(Cn1nc(-c2ccccc2)cc1-c1ccccc1)N1CCc2nc(-c3ccccc3)nc(O)c2C1
5. COc1cccc2c1CCN(C(=O)Cn1nc(-c3ccccc3)cc1-c1ccccc1)C2

Solution:
1. 7.17
2. 7.20
3. 7.19
4. 5.93
5. 5.74

Please give pEC50 for each item listed below.
1. Cc1nnc(N2CCN(C(=O)Cn3nc(-c4ccc(F)c(C)n4)cc3-c3ccccc3)CC2)o1
2. Cc1cccc(-c2cc(-c3ccccc3)n(CC(=O)N3Cc4nc(C)sc4C3)n2)c1
3. Cc1cc(-c2cc(-c3ccccc3)n(CC(=O)N3CCc4nc(N)sc4C3)n2)ccc1F
4. CCc1cc(-c2ccc(F)c(C)c2)nn1CC(=O)N1CCc2nc(N)sc2CC1

Solution:
1: 6.63; 2: 7.62; 3: 7.46; 4: 7.08

Please give pEC50 for each item listed below.
1. CCc1cc(-c2cccc(C)c2)nn1CC(=O)N1CC=C(c2ncc(OC)cn2)CC1
2. O=C(Cn1nc(-c2ccccc2)cc1-c1ccccc1)N1CCc2ncsc2CC1
3. COc1cnc(C2CCN(C(=O)Cn3nc(-c4ccc(C)c(C)c4)cc3-c3ccccc3)CC2)nc1 [Example 7.02.088]

Solution:
1. 6.54
2. 6.16
3. 6.60

----------
- system-name: human recombinant mGluR5 (Homo sapiens)
- Construct: expressed in transfected cells; host or cells: HEK 293
- assay-overview: positive modulation of mGluR5, calcium based FLIPR assay
- details: HEK 293 cell line expressing human recombinant mGluR5; EC50 of the modulation from peak Ca fluorescence signal after glutamate at approx. 5% basal stimulation
observable: EC50 (nM)
Numbers only, in nM.

Here's what some known entries look like.
compound-structure: COCCCc1cc(-c2ccc(F)c(C)c2)nn1CC(=O)N1CCc2nc(N)sc2CC1
EC50, nM: 48
//
compound-structure: Cc1nc2c(s1)CCN(C(=O)Cn1nc(-c3ccc(F)c(C)c3)cc1-c1ccccc1)CC2
EC50, nM: 15
//
compound-structure: CCc1cc(-c2cccc(C#N)c2)nn1CC(=O)N1Cc2nc(C)sc2C1
EC50, nM: 326

Problem: Fill in the recorded EC50 for this compound, with human recombinant mGluR5 (Homo sapiens) as test system: Cc1nc(-c2cc(-c3ccccc3)n(CC(=O)N3CCc4nc(N)sc4CC3)n2)ccc1F
Solution: 68

----------
Assign pEC50 to each entry below.
- system-name: human recombinant mGluR5 (Homo sapiens, UniProt P41594)
- assay-overview: positive modulation of mGluR5, calcium based FLIPR assay
- details: HEK 293 cell line expressing human recombinant mGluR5; EC50 of the modulation from peak Ca fluorescence signal after glutamate at approx. 5% basal stimulation
One number for each entry, as −log10 of the molar value.

Here's what some known entries look like.
compound-structure: Cc1cnc(C2CCN(C(=O)Cn3nc(-c4ccc(F)c(C)c4)cc3-c3ccccc3)CC2)o1
system-name: human recombinant mGluR5 (Homo sapiens, UniProt P41594)
recorded-number: 7.92
--
compound-structure: COCc1cc(-c2ccc(F)c(C)c2)nn1CC(=O)N1CCc2nc(C)sc2CC1
system-name: human recombinant mGluR5 (Homo sapiens, UniProt P41594)
recorded-number: 7.28
--
compound-structure: COc1cc(-c2cc(C(C)C)n(CC(=O)N3CCc4nc(C)sc4CC3)n2)ccc1F
system-name: human recombinant mGluR5 (Homo sapiens, UniProt P41594)
recorded-number: 6.72

From here, focus on the item given below.
Problem: Returns the measured pEC50 for the input compound. Input: COc1cc(-c2cc(-c3ccccc3)n(CC(=O)N3CCC(c4nnc(C)o4)CC3)n2)ccc1F
Solution: 6.68
